test system: KM12 colon; experiment: NCI-60 one-dose screen, 48 h (100 = growth as untreated, 0 = no growth, -100 = all killed); details: 10 µM unless noted
This is part of a sample that, as a whole, favours compounds with a hit. Of some 83,000 tested, about 20% had one in any assay.
Measured parameter: growth (%)
// note: answer is a bare numeric in %

Here's what some known entries look like.
[[record]]
item_smiles = "CC1(C)CC[C@]2(C(=O)O)CC[C@]3(C)C(=CC[C@@H]4[C@@]5(C)Cc6c([nH]c7ccccc67)C(C)(C)[C@@H]5CC[C@]43C)[C@@H]2C1"
measured_parameter = "growth"
unit_symbol = "%"
meas_value = 17.7

[[record]]
item_smiles = "CC(C)(C)c1cc(C=O)cc(C(C)(C)C)c1O"
measured_parameter = "growth"
unit_symbol = "%"
meas_value = 99.6

[[record]]
item_smiles = "O=C(Cn1c(C(=O)c2ccccc2)nc2ccccc21)c1ccc(F)cc1"
measured_parameter = "growth"
unit_symbol = "%"
meas_value = 43.9

[[record]]
item_smiles = "CSc1nc2sc3cccc(Cl)c3n2c(=N)c1C#N"
measured_parameter = "growth"
unit_symbol = "%"
meas_value = 101


# input for lookup
In: For the compound NCCCCCCNc1cc(-c2cccc(OC(F)(F)F)c2)nc2ccc(N3CCCC3)cc12 , what growth is on record?
Out: -82.7

###

test system: MDA-MB-435 melanoma; test: NCI-60 one-dose screen, 48 h (100 = growth as untreated, 0 = no growth, -100 = all killed); settings: 10 µM unless noted
Compounds without any hit were thinned out: in the full panel of roughly 83,000, 20% have a hit.
Decision: growth >= 70% yields rule met, all other cases yield rule not met.

In: Quick check, growth >= 70%? CC/C(=C\c1ccc(OC)cc1)C(=O)c1ccc(OC)cc1
Out: rule met

In: Quick check, growth >= 70%? CCCC/C=N/NC(=S)NCc1ccccc1
Out: rule met

###

Test system: SN12C renal
Assay: NCI-60 one-dose screen, 48 h (100 = growth as untreated, 0 = no growth, -100 = all killed)
Conditions: 10 µM unless noted
Method: Growth inhibition of the SN12C human tumor cell line is measured as a screen for anti-cancer activity. Cells are grown in 96 well plates and exposed to the test compound for 48 hours. Compounds are tested at a single concentration, which is 10^-5 M for most compounds. The reported endpoint is percent growth (GI% or GIPRCNT), where numbers from 0 - 100% represent growth inhibition, and numbers from -100% - 0 represent cell death. For example, a value of 40 represents 60% growth inhibition. […]
The panel holds about 83,000 compounds, 20% with a hit somewhere; the sample as a whole holds those more often. Activity calls are given as the source filed them. How the source made its calls: active means growth percent below 10; inactive means the rest.
Listed compounds paired with reported growth

Here's what some known entries look like.
[[record]]
compound = "CN(CCN(C)c1ccc(C(=N)N)cc1)c1ccc(C(=N)N)cc1"
meas_value = "74.3% (inactive)"

[[record]]
compound = "O=S(=O)(NCCNc1nccc(-c2c(-c3cccc(O)c3)nc3occn23)n1)c1cccc(F)c1"
meas_value = "76.6% (inactive)"

[[record]]
compound = "COc1cc(C2C3=C(COC3=O)N(CCO)c3cc4c(cc32)CCC4)cc(OC)c1OC (stereo not given)"
meas_value = "23.9% (inactive)"


In: For the compound COc1ccc(Cc2cnc(NC(=O)c3ccc4c(c3)OCCO4)s2)cc1 , what growth is on record?
Out: 30.7% (inactive)

In: For the compound CN1C(=O)NC(c2ccc3c(c2)OCO3)C=C1c1ccccc1 (stereo not given) , what growth is on record?
Out: 89% (inactive)

In: For the compound COc1cc(/C=C/C(=O)c2nc3cc(F)ccc3nc2C)cc(OC)c1OC , what growth is on record?
Out: 66.1% (inactive)

In: For the compound CSc1nc2sc3cccc(Cl)c3n2c(=N)c1C#N , what growth is on record?
Out: 101% (inactive)

In: For the compound CCCC/C=N/NC(=S)NCc1ccccc1 , what growth is on record?
Out: 96.1% (inactive)

In: For the compound CCOC(=O)C1=C(CCl)NC(=O)NC1c1ccc2c(c1)OCO2 (stereo not given) , what growth is on record?
Out: 20.1% (inactive)

In: For the compound C=C(C)[C@@H]1CC[C@]2(C(=O)N3CCN(C)CC3)CC[C@]3(C)[C@H](CC[C@@H]4[C@@]5(C)C/C(=C/c6ccncc6)C(=O)C(C)(C)[C@@H]5CC[C@]43C)[C@@H]12 , what growth is on record?
Out: 47.1% (inactive)

###

Test system: BT-549 breast
Assay: NCI-60 one-dose screen, 48 h
Conditions: 10 µM unless noted
Protocol: Growth inhibition of the BT-549 human tumor cell line is measured as a screen for anti-cancer activity. Cells are grown in 96 well plates and exposed to the test compound for 48 hours. Compounds are tested at a single concentration, which is 10^-5 M for most compounds. The reported endpoint is percent growth (GI% or GIPRCNT), where numbers from 0 - 100% represent growth inhibition, and numbers from -100% - 0 represent cell death. For example, a value of 40 represents 60% growth inhibition. […]
This is part of a sample that, as a whole, favours compounds with a hit. Of some 83,000 tested, about 20% had one in any assay. Active and inactive are the calls of the source. The calls were made as follows: active = growth percent below 10; inactive = the rest.
Can you answer with just one of these options? active, inactive

[[record]]
molecule = "Cc1ccc(C(=O)/C(=C/c2ccc([N+](=O)[O-])cc2)SCc2ccc(Cl)cc2)cc1"
tested_target = "BT-549 breast"
answer_label = "inactive"

[[record]]
molecule = "C=C1C(=O)O[C@H]2[C@H]1CC/C(COC(=O)NCCc1c[nH]c3ccc(OC)cc13)=C\\CC[C@@]1(C)O[C@@H]21"
tested_target = "BT-549 breast"
answer_label = "active"

[[record]]
molecule = "Cn1cc(CC2CC(=O)N(c3ccccc3)C2=O)sc1=NC(=O)c1ccccc1 (stereo not given)"
tested_target = "BT-549 breast"
answer_label = "inactive"

[[record]]
molecule = "O=S(=O)(NCCNc1nccc(-c2c(-c3cccc(F)c3)nc3sccn23)n1)c1ccc(Cl)cc1"
tested_target = "BT-549 breast"
answer_label = "inactive"


Now, please, on to the next molecule.
In: Hi, sorry to bother you, what did the test record for CCOC(=O)/C(C#N)=C1/NNC(=Nc2cccnc2)S1 ?
Out: inactive

###

test system: SNB-75 CNS; experiment: NCI-60 one-dose screen, 48 h (100 = growth as untreated, 0 = no growth, -100 = all killed); conditions: 10 µM unless noted
The panel holds about 83,000 compounds, 20% with a hit somewhere; the sample as a whole holds those more often.
Measured parameter: growth (%)
// note: answer is a bare numeric in %

Here's what some known entries look like.
[[record]]
compound = "Cc1cc2c(C(=O)NCC#N)cccc2n1-c1nc2c(c(NCc3ccccc3)n1)CCCC2"
meas_value = -11.4

[[record]]
compound = "CC1=C(C(=O)/C=C/c2ccc(N(C)C)cc2)C(c2ccccc2)NC(=S)N1 (centres undefined)"
meas_value = 86.9

[[record]]
compound = "Brc1ccc2[nH]cc(-c3cncn3CCc3ccccc3)c2c1"
meas_value = 36.7

[[record]]
compound = "C[C@H]1[C@H](C)CC[C@]2(C(=O)Nc3ccc4ncccc4c3)CC[C@]3(C)C(=CC[C@@H]4[C@@]5(C)CCCNC(C)(C)[C@@H]5CC[C@]43C)[C@H]12"
meas_value = 78.2


In: For the compound CCCCCCNC(=O)Oc1ccc(/C(=C(\C)c2ccccc2)c2ccc(OCCCN(C)C)cc2)cc1 , what growth is on record?
Out: 86.8

In: For the compound CC1(C)CC(O)CCCCCCOc2c(CN)cccc2NC(=O)c2nc(cnc2N)-c2ccc(cc2)S1(=O)=O (centres undefined) , what growth is on record?
Out: 53.7

In: For the compound O=C(/C=C/c1ccc[nH]1)c1ccc(-n2ccc(C(F)(F)F)n2)c(F)c1 , what growth is on record?
Out: 75.6

In: For the compound C#CCNC(=O)c1cccc2c1cc(C)n2-c1nc2c(c(NCc3ccccc3)n1)CCCC2 , what growth is on record?
Out: 5.33

In: For the compound CC1=C(C(=O)/C=C/c2c[nH]c3ccccc23)C(c2ccccc2)NC(=S)N1 (centres undefined) , what growth is on record?
Out: 65.5

###

tested on: MDA-MB-435 melanoma; assay: NCI-60 one-dose screen, 48 h (100 = growth as untreated, 0 = no growth, -100 = all killed); settings: 10 µM unless noted
This is part of a sample that, as a whole, favours compounds with a hit. Of some 83,000 tested, about 20% had one in any assay.
Listed compounds paired with reported growth
// note: answer is a bare numeric in %

[[record]]
compound = "O=C1Nc2cc(-c3cccc(O)c3)ccc2/C1=C/c1ccc[nH]1"
measured_parameter = "growth"
unit_symbol = "%"
meas_value = 5.05

[[record]]
compound = "O=C(CCN1CCCC1)Nc1ccc2c(NCCc3ccccc3)c3ccccc3nc2c1"
measured_parameter = "growth"
unit_symbol = "%"
meas_value = -92.1

[[record]]
compound = "O=C(Nc1cccc(C2=NCCN2)c1)c1ccc(-c2ccc(C(=O)Nc3cccc(C4=NCCN4)c3)cc2)cc1"
measured_parameter = "growth"
unit_symbol = "%"
meas_value = 57.4

[[record]]
compound = "CC(=O)[C@H]1CCC/C=C/[C@@H]2C[C@H](O)C[C@H]2[C@H](O)/C=C/C(=O)O1"
measured_parameter = "growth"
unit_symbol = "%"
meas_value = 8.17

[[record]]
compound = "Cc1ncc(C(=O)Nc2ccc(CN3CCN(C)CC3)c(C(F)(F)F)c2)cc1C#Cc1cnc(N)cc1C#N"
measured_parameter = "growth"
unit_symbol = "%"
meas_value = -95.8

[[record]]
compound = "COc1cc(NC(=O)CSc2nc3ccc(C)cc3c(=O)n2Cc2ccccc2)cc(OC)c1OC"
measured_parameter = "growth"
unit_symbol = "%"
meas_value = 67.3

[[record]]
compound = "CCNc1nc2cc(Nc3ccnc4cc(Cl)ccc34)ccc2o1"
measured_parameter = "growth"
unit_symbol = "%"
meas_value = 9.8

[[record]]
compound = "C/C=C(\\C)C(=O)NC1=CC[C@@]2(C)C(=CCC3C2CC[C@@]2(C)C3CC[C@@H]2C(C)N(C)C)C1=O (stereo not given in full)"
measured_parameter = "growth"
unit_symbol = "%"
meas_value = -2.62


In: For the compound CC(=O)O[C@H]1Cc2c([nH]c3ccccc23)[C@@H](c2ccc(Cl)cc2)N1C(=O)CCNC(C)(C)C , what growth is on record?
Out: 70

In: For the compound CCNc1nc2ccc(Nc3ccnc4cc(Cl)ccc34)cc2[nH]1 , what growth is on record?
Out: 93.1

In: For the compound CCOC(=O)c1cc(C(=O)c2ccc(OC)cc2)n2ccc(/C=C/c3cc[n+](CC(=O)c4ccc(OC)cc4)cc3)cc12 , what growth is on record?
Out: 77

In: For the compound COc1cccc(-c2ccc3c(c2)NC(=O)/C3=C\c2ccc[nH]2)c1 , what growth is on record?
Out: 8.7

In: For the compound Brc1ccc2[nH]cc(-c3cncn3CCc3ccccc3)c2c1 , what growth is on record?
Out: 57.5

In: For the compound CN1CCN(C(=O)[C@]23CCC(C)(C)C[C@H]2C2=CC[C@@H]4[C@@]5(C)C/C(=C/c6cccnc6)C(=O)C(C)(C)[C@@H]5CC[C@@]4(C)[C@]2(C)CC3)CC1 , what growth is on record?
Out: 59.1
